The origin of these recorded values is PubChem BioAssay (NCI).

test system: RXF 393 renal; assay: NCI tumour cell line growth inhibition, 48 h
endpoint name: TGI (µM)
Output spec: scalar in µM, unitless text.

[[record]]
molecule = "CCN(CC)c1ccc(/C=C(\\C#N)c2nc(N)nc(N3N=C(C)CC3(C)C)n2)cc1"
recorded_result = 23.7

[[record]]
molecule = "CC(=O)Nc1ccc(/C=C(\\NC(=O)c2ccccc2)c2nc3ccc4c(c3[nH]2)C(=O)c2ccccc2C4=O)cc1"
recorded_result = 49.1

[[record]]
molecule = "OCCN(CCO)N=Nc1ccc(-c2nc3ccccc3[nH]2)cc1"
recorded_result = 65

[[record]]
molecule = "Cc1ccc(Nc2nc(NCCO)c3ccccc3n2)cc1C"
recorded_result = 13.7


TGI of COc1ccc2c(c1)C(N)CC2=O (stereo not given) on RXF 393 renal? 36.3

TGI of "Cc1ccc2c(c1)SSSSS2" on RXF 393 renal? 39

TGI of "Clc1ccc(N=C/C=C/Nc2ccc(Cl)cn2)nc1" on RXF 393 renal? 34.9

TGI of "COc1ccc(CN2C(=O)/C(=C\c3cc(OC)c(OC)c(OC)c3)c3cc(OC)ccc32)cc1" on RXF 393 renal? 3.47

TGI of "O=C1/C(=C/c2cccc([N+](=O)[O-])c2)COc2ccc(O)c(O)c21" on RXF 393 renal? 2.69

TGI of "S=c1ssc2c3ssc(=S)c3n(Cc3ccccc3)c12" on RXF 393 renal? 34.3
